Task for the reader: assign each of the following compounds its reported log10 IC50.
# target or system: UniProt:O95180
# Sequence (O95180 whole entry): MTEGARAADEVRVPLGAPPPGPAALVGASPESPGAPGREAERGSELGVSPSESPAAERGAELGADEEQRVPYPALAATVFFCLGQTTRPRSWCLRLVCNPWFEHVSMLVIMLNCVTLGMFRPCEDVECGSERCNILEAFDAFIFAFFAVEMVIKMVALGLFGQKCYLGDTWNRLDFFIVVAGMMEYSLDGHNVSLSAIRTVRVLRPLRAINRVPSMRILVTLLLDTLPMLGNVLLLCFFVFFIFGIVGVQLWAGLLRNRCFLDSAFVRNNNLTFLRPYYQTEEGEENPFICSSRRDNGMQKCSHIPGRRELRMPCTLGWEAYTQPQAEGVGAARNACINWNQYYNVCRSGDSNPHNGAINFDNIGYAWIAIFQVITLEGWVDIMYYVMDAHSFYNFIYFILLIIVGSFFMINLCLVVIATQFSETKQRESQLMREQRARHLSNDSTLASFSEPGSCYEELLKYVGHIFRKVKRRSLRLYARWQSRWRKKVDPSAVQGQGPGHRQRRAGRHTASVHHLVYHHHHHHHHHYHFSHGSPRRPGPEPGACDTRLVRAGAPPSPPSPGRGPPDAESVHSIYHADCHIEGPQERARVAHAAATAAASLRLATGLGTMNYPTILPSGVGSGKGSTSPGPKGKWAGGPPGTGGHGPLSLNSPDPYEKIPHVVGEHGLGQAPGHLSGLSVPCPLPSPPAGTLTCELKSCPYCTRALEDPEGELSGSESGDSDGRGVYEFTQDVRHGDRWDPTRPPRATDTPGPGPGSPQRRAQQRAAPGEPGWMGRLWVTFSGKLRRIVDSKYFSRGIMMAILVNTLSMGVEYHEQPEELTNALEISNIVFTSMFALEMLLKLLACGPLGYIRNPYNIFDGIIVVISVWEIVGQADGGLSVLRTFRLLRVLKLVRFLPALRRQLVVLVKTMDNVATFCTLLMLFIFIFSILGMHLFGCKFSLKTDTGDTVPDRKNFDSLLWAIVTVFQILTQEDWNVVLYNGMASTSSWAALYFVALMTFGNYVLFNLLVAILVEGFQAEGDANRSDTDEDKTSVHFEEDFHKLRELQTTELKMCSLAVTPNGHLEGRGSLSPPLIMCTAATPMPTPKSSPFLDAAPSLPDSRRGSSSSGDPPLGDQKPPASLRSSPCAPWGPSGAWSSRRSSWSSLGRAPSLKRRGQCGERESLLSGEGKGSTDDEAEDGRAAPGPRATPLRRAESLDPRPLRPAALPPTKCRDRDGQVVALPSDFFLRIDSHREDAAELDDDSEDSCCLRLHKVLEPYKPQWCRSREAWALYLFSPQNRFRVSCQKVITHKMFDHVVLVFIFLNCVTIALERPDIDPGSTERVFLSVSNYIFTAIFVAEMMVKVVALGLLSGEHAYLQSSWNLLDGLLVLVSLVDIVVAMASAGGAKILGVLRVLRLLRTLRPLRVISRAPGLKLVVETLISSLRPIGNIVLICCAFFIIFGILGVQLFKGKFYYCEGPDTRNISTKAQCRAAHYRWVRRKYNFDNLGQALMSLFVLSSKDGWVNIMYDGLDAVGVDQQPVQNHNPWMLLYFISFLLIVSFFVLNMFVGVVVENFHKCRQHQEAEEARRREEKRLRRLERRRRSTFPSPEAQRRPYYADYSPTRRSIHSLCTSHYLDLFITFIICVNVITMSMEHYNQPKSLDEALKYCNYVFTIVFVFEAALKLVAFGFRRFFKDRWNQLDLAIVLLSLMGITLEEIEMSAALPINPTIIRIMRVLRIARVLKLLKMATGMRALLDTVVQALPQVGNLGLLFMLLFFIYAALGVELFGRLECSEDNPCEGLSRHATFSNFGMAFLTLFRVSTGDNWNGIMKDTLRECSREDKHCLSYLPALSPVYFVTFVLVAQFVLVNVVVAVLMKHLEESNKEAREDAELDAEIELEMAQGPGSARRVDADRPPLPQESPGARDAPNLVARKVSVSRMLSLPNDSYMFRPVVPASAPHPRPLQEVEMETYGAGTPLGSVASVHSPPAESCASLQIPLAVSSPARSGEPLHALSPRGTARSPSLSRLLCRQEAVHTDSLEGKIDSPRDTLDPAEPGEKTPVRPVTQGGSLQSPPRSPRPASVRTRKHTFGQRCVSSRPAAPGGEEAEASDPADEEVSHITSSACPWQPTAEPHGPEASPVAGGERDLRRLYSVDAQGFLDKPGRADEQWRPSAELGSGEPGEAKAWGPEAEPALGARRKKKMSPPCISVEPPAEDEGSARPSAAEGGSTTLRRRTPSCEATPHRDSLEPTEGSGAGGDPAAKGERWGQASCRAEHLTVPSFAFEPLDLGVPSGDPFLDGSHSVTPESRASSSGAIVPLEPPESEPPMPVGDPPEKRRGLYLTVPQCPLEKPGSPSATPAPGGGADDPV
# measurement notes: T-type calcium channel block, whole cell patch clamp (α1H)
# settings: HEK cells stably expressing human α1H; mainly non-inactivated protocol; values above 10 μM represented as 10 μM
// stored as log10 of IC50 expressed in µM

**Q:** Can you share its log10 IC50? I mean this compound: O=C(CNC[C@H]1CC[C@H](NC(=O)c2cc(C(F)(F)F)cc(C(F)(F)F)c2)CC1)Nc1ccccn1 [Compound 96]
**A:** 0.02

**Q:** I am curious: what log10 IC50 value has been reported for CC1(NC(=O)CN[C@H]2CC[C@H](CNC(=O)c3cc(Cl)cc(Cl)c3)CC2)CCC1 [Compound 192] ?
**A:** -0.92

**Q:** Requested field: log10 IC50. Item: CC(C)(C)NC(=O)CN[C@H]1CC[C@@H](CNC(=O)c2cc(F)cc(Cl)c2)CC1 [Compound 186]
**A:** -0.59

**Q:** I'd like to know its log10 IC50. The compound in question is O=C(NC[C@H]1CC[C@H](NC(=O)[C@@H]2CC[C@H](c3ccccc3)N2)CC1)c1cc(C(F)(F)F)cc(C(F)(F)F)c1 [Compound 135]
**A:** 0.75

**Q:** Quick one: log10 IC50 of Cc1cc(CN[C@H]2CC[C@@H](CNC(=O)c3cc(C(F)(F)F)cc(C(F)(F)F)c3)CC2)no1 [Compound 52] ?
**A:** 0.12

**Q:** Using the record for CC(C)(O)CN[C@H]1CC[C@H](CNC(=O)c2cc(C(F)(F)F)cc(C(F)(F)F)c2)CC1 [Compound 4] , report its log10 IC50.
**A:** 0.65

**Q:** Which measured log10 IC50 value corresponds to Cc1ccc(-c2csc(NC(=O)C[C@H]3CC[C@@H](NCC(C)(C)NC(=O)OC(C)(C)C)CC3)n2)cc1 [Compound 38] ?
**A:** 0.90

---

# target or system: human α1G T-type channels (Homo sapiens, UniProt O43497)
# Sequence (O43497 whole entry): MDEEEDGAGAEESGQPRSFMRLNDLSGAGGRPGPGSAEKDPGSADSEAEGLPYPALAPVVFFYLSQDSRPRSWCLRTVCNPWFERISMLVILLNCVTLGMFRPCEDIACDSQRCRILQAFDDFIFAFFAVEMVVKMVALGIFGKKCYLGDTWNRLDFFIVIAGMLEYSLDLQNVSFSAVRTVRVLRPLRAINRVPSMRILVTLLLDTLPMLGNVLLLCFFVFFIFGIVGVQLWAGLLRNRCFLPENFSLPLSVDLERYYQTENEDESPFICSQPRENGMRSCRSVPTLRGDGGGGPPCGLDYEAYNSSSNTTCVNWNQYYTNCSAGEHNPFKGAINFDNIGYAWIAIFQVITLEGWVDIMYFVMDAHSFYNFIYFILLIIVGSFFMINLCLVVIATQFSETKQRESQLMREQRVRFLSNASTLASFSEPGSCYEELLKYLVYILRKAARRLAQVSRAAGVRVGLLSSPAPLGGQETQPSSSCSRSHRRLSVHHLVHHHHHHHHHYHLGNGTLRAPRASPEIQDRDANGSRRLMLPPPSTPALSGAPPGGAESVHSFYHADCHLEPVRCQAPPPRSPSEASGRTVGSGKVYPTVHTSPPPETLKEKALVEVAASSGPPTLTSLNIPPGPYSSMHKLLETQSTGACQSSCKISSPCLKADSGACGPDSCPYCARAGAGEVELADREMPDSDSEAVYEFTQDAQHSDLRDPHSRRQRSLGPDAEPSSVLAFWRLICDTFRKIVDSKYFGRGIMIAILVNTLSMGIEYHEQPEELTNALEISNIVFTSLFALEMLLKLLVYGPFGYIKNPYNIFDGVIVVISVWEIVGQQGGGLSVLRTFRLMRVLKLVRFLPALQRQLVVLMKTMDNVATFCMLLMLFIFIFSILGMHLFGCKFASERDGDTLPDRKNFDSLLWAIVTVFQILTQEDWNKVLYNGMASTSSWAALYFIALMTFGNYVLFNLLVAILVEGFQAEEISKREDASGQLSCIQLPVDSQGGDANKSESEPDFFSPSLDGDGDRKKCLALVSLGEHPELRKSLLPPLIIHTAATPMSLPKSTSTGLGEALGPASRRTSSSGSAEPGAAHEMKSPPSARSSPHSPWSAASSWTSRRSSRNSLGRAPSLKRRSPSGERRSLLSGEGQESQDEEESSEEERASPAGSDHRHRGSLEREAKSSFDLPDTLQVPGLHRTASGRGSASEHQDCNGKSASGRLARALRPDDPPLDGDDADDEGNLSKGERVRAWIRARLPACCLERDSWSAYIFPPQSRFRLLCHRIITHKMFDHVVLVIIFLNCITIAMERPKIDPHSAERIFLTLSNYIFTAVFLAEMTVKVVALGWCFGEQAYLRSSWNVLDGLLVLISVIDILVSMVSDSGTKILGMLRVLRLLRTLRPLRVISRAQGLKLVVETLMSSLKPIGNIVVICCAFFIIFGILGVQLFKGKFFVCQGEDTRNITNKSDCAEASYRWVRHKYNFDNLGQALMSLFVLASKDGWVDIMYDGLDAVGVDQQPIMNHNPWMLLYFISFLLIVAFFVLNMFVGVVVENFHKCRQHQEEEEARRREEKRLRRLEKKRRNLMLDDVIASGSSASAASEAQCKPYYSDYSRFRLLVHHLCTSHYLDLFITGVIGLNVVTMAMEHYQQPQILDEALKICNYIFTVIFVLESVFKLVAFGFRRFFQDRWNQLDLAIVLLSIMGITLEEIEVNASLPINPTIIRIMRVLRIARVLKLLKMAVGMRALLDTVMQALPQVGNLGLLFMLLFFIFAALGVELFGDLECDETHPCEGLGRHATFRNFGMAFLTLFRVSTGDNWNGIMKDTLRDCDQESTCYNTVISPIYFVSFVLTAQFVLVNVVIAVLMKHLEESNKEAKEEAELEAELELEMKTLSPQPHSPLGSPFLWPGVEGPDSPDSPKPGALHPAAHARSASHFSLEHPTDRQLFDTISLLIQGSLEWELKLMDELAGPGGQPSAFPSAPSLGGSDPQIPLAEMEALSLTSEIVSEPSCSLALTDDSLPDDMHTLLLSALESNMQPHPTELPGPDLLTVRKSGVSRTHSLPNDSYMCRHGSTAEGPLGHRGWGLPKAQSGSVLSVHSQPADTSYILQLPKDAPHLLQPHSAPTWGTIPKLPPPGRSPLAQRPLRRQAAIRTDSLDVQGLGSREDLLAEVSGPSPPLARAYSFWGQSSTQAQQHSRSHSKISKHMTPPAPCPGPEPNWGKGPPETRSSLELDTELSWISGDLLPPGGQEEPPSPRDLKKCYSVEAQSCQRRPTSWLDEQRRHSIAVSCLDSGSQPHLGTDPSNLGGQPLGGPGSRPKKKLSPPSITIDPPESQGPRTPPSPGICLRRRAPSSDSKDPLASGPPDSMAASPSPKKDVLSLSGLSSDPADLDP
# measurement notes: T-type calcium channel block, whole cell patch clamp (α1G)
# settings: HEK cells stably expressing human α1G; mainly non-inactivated protocol; values above 10 μM represented as 10 μM, values below 0.30 μM represented as 0.30 μM
property: IC50 (µM)
Entry rule: numbers only, all in µM.

**Q:** GET /values?readout=IC50&item= CC(C)CNC(=O)CNC[C@H]1CC[C@H](NC(=O)c2cc(C(F)(F)F)cc(C(F)(F)F)c2)CC1 [Compound 93]
**A:** 1.38

**Q:** What does the record list as IC50 for CC(C)(C)[C@H](O)C(=O)NC1CCC(CC(=O)Nc2cc(C(F)(F)F)cc(C(F)(F)F)c2)CC1 (stereo in doubt) [Compound 108] ?
**A:** 0.45

**Q:** Given the entry CN(C(=O)CN[C@H]1CC[C@H](CNC(=O)c2cc(F)cc(Cl)c2)CC1)C1(C)CCC1 [Compound 211] , report its measured IC50.
**A:** 1.18

**Q:** Record request: IC50 value, item O=C(CN[C@H]1CC[C@@H](CNC(=O)c2cc(C(F)(F)F)cc(C(F)(F)F)c2)CC1)NCC1CCCCC1 [Compound 48]
**A:** 0.35

**Q:** State the recorded IC50 for this entry: COc1cccnc1CN[C@H]1CC[C@H](CNC(=O)c2cc(C(F)(F)F)cc(C(F)(F)F)c2)CC1 [Compound 30]
**A:** 1.06

**Q:** Give the measured IC50 of CC(C)(C)NC(=O)CN[C@H]1CC[C@H](CNC(=O)c2cc(F)cc(Cl)c2)CC1 [Compound 201] .
**A:** 1.8

**Q:** Query: IC50; subject: COc1ccccc1CN[C@H]1CC[C@@H](CNC(=O)c2cc(C(F)(F)F)cc(C(F)(F)F)c2)CC1 [Compound 10]
**A:** 0.47

**Q:** Field request: IC50 | item: O=C(CN[C@H]1CC[C@H](CNC(=O)c2cc(C(F)(F)F)cc(C(F)(F)F)c2)CC1)NN1CCCCC1 [Compound 60]
**A:** 1.3

**Q:** Can you share its IC50? I mean this compound: CC1(C)COCCN1C(=O)CN[C@H]1CC[C@@H](CNC(=O)c2cc(F)cc(Cl)c2)CC1 [Compound 194]
**A:** 3.4

**Q:** Recorded IC50 for O=C(NC[C@H]1CC[C@@H](NC(=O)[C@H]2CC[C@@H](c3ccccc3)N2)CC1)c1cc(C(F)(F)F)cc(C(F)(F)F)c1 [Compound 139] , please?
**A:** 1.07

**Q:** Param item = COc1ccc(CN[C@H]2CC[C@H](CNC(=O)c3cc(C(F)(F)F)cc(C(F)(F)F)c3)CC2)c(OC)c1 [Compound 35] ; retrieve measured IC50.
**A:** 0.39

**Q:** Returns the measured IC50 for the input compound. Input: Cc1ccc(-c2csc(NC(=O)C[C@H]3CC[C@@H](NC(=O)[C@H]4CC[C@@H](c5ccccc5)N4)CC3)n2)cc1 [Compound 138]
**A:** 4.88

**Q:** Suppose we examine the compound COCC(C)(C)N(C)C(=O)CN[C@H]1CC[C@@H](CNC(=O)c2cc(F)cc(OC)c2)CC1 [Compound 214] ; what IC50 value has been reported?
**A:** 5.82

**Q:** Which IC50 is reported for this compound? COc1cc(F)cc(C(=O)NC[C@H]2CC[C@@H](NCC(=O)N3CCOCC3(C)C)CC2)c1 [Compound 198]
**A:** 9.92

**Q:** // IC50 lookup, key: COc1cc(F)cc(C(=O)NC[C@H]2CC[C@H](NCC(=O)N(C)C(C)(C)C)CC2)c1 [Compound 210]
**A:** 5.61

**Q:** Would you kindly share the measured IC50 for CC1(NC(=O)CN[C@H]2CC[C@H](CNC(=O)c3cccc(OC(F)(F)F)c3)CC2)CCC1 [Compound 190] ?
**A:** 1.63

**Q:** What value of measured IC50 is listed for COC1CCC(N(C)C(=O)CN[C@H]2CC[C@@H](CNC(=O)c3cc(C(F)(F)F)cc(C(F)(F)F)c3)CC2)CC1 (some centres unmarked) [Compound 50] ?
**A:** 4.28

**Q:** IC50 for COc1cc(F)cc(C(=O)NC[C@H]2CC[C@@H](NCC(=O)N(C)C3(C)CCC3)CC2)c1 [Compound 215] ?
**A:** 1.99

**Q:** What does the data say about its IC50? Entry: O=C(NC[C@H]1CC[C@@H](NCc2cccc(F)c2O)CC1)c1cc(F)cc(C(F)(F)F)c1 [Compound 21]
**A:** 0.84

**Q:** State the recorded IC50 for this entry: CC(C)CNC(=O)CN[C@H]1CC[C@@H](CNC(=O)c2cc(C(F)(F)F)cc(C(F)(F)F)c2)CC1 [Compound 70]
**A:** 0.33

**Q:** Suppose we examine the compound COc1cc(F)cc(C(=O)NC[C@H]2CC[C@H](NCC(=O)NC(C)(C)C)CC2)c1 [Compound 206] ; what IC50 value has been reported?
**A:** 4.42

**Q:** # lookup: IC50 of O=C(NC[C@H]1CC[C@H](NC(=O)C2(c3ccccc3)CCNCC2)CC1)c1cc(C(F)(F)F)cc(C(F)(F)F)c1 [Compound 136]
**A:** 3.81

**Q:** Given O=C(CN[C@H]1CC[C@@H](CNC(=O)c2cc(C(F)(F)F)cc(C(F)(F)F)c2)CC1)NCC(F)(F)F [Compound 43] , state its recorded IC50.
**A:** 0.91

**Q:** What value of IC50 has been reported for the following compound? NC1(C(=O)N[C@H]2CC[C@H](CC(=O)Nc3cc(C(F)(F)F)cc(C(F)(F)F)c3)CC2)CCCC1 [Compound 124]
**A:** 0.83

**Q:** Give the measured IC50 of COc1cc(OC)cc(C(=O)NC[C@H]2CC[C@@H](NCC(=O)NC(C)(C)C)CC2)c1 [Compound 181] .
**A:** 3.65

---

# target or system: human α1G T-type channels (Homo sapiens, UniProt O43497)
# measurement notes: T-type calcium channel block, whole cell patch clamp (α1G)
# settings: HEK cells stably expressing human α1G; mainly non-inactivated protocol; values above 10 μM represented as 10 μM, values below 0.30 μM represented as 0.30 μM
For each of the molecules below, state its IC50.
Your answer is read as nM, so omit the unit and give the number.

**Q:** Given CC(C)(C)OC(=O)NCCN[C@H]1CC[C@@H](CNC(=O)c2cc(F)cc(C(F)(F)F)c2)CC1 , state its recorded IC50.
**A:** 900

**Q:** Would you kindly share the measured IC50 for O=C(NC[C@H]1CC[C@@H](NCc2cccnc2F)CC1)c1cc(F)cc(C(F)(F)F)c1 ?
**A:** 7730

**Q:** Can you look up the measured IC50 of O=C(NC[C@H]1CC[C@H](NC(=O)[C@H]2CC[C@@H](c3ccccc3)N2)CC1)c1cc(C(F)(F)F)cc(C(F)(F)F)c1 for me?
**A:** 700

**Q:** Please give the measured IC50 for this molecule: Cc1cccc(CN[C@H]2CC[C@@H](CNC(=O)c3cc(C(F)(F)F)cc(C(F)(F)F)c3)CC2)c1O
**A:** 850

**Q:** Which IC50 reading was recorded for the molecule CC(C)(C)OC(=O)NCCN[C@H]1CC[C@@H](CNC(=O)c2cc(C(F)(F)F)cc(C(F)(F)F)c2)CC1 ?
**A:** 410

**Q:** // lookup IC50 for COc1ccccc1CN[C@H]1CC[C@@H](CNC(=O)c2cc(F)cc(C(F)(F)F)c2)CC1
**A:** 530

**Q:** State the recorded IC50 for this entry: Cc1ccc(-c2csc(NC(=O)C[C@H]3CC[C@@H](NC(=O)[C@@H]4CC[C@H](c5ccccc5)N4)CC3)n2)cc1
**A:** 7560

**Q:** State the recorded IC50 for this entry: O=C(C[C@H]1CC[C@H](NC(=O)[C@H]2CCCN2)CC1)Nc1cc(C(F)(F)F)cc(C(F)(F)F)c1
**A:** 4890
